These data points were gathered from the nanobody polyreactivity screen of Harvey et al. (2022).

test: yeast display, Sf9 membrane polyspecificity reagent, FACS + sequencing; frameworks hold sequencing errors
ASSAY_ENDPOINT: polyreactivity (PSR sort gate)

* QVQLVESGGGLVQAGGSLRLSCAASGSTFVRYVMGWYRQAPGKERELVAAISEGGGSTYYADSVKGRFTISRDNAKNTVYLQMNSLKPEDTAVYYCAAGRSNSYSPRRRVTYGYNYWGQGTQVTVSS | high polyreactivity
* QVQLVESGGGLVQAGGSLRLSCAASGRTFAYNAMGWYRQAPGKERELVASITSGGSTNYADSVKGRFTISRDNAKNTVYLQKNSLKPEDTAVYYCNKDGKYHRVLYDYWGLGTQVTVSS | low polyreactivity
* QVQLVESGGGLVQAGGSLRLSCPASGLIFRRNVMGRYRQAPGKERELVAAISRGGSTYNADSVKGRFTISRDNAKNTVFLQMNSLNPEDTAVYYCAAAYTRYVVRGDFWGQGTQVTVSS | high polyreactivity
* QVQLVESGGGLVQAGGSLRLSCAASGSIFGDNAMGWYRKAPGKERELVAGISSSGGRTYYADSVKGRFTISRDNAKNTVYLQMNSLKPEVTAVYYCAKEPGWGRRSTTAYDYCGQGTQVTVSS | low polyreactivity
* QVQLVESGGGLVQAGGSLRLSCAASGSTFNRNAMGWYRHAPGKERELVATISTGGVSTYYADSVKGRFTISRDNAKNTVYLQMNSLKPEDTAVYYCAKRTVYLSNLDYWGQGTQVTVSS | low polyreactivity
* QVQLVESGGGLVQAGGSLRLSCAASGRTFASYTMGWYRQAPGKERELVAAISRGGNTYYADSVKGRFTISRDNAKNTVYLQMNSLKPEDTAVYYCAATAVKYDRRFYYWGQGTQVTVSS | high polyreactivity
* QVQLVESGGGLVQAGGSLRLSCAASGSIFYGYAMGWYRQAPGKERELVAAITSSGTRTYYADSVKGRFTISRDNAKNTVYLQMNSLKPEDTAVYYCAADGPGYQYDYWGQGTQVTVSS | high polyreactivity
* QVQLVESGGGLVQAGGSLRLSCAASGRILGVYVMGWYRQAPGKERELVAAISGGGRTNYADSVKGRFTISRDNAKNTVYLQMNSLKPEDTAVYYCNAERPYQYYPGIYRWYYYWGQGTQVTVSS | low polyreactivity

In: Param item = "RVQLVESGGGLVQAGGRLRLSCAASRFTFIVNPMGWYRQAPGKERELVAAISWNGGSTYYADSVKGRFTISRDNAKNTVYLQMNSLKPEDTAVYYCAVLYRSEYDWGQGTQVTVSS" ; retrieve measured polyreactivity (PSR sort gate).
Out: low polyreactivity

In: Reported polyreactivity (PSR sort gate), sequence "QVQLVESGGGLVQAGGSLRLSCAASGAIFDSNAMGWYREAPGTERELVASIDRGGDTNYADSVKGRFTISRDNAKNTVYLQMNSLKPEDTAVYYCAAYYYKWVWIGMDYWGQGTQVTVSS" : ____
Out: low polyreactivity

In: I would be grateful if you could share the reported polyreactivity (PSR sort gate) for "QVQLVESGGGLVQAGGSLRLSCAASGITLYRYTMGWDRQAPGTEREFVAAISRSGGSTYYADSVKGRFTISRDNEKNTVYVQMNSLKPEDTAVYYCAARWYEKTTRPYGSWGQGTQVTVSS" .
Out: high polyreactivity

In: Look up polyreactivity (PSR sort gate) for this sequence: "QVQLVESGRGLVQAGGSLRLSCAASGSTFSRYTMGWYRQAPGKERELVAAISYRGGSTYYADSVKGRFTISRDNAKNTVYLQMNSLKPEDTAVYYRAAEYRVEGSDYDYWGQGTQVTVSS"
Out: low polyreactivity

In: Look up polyreactivity (PSR sort gate): "QVQLVESGGGLVQAGGSLRLSCAASGIIFDFYAMGWYRQAPGKEWELVAAITVSGGSTYYADSVKGRFTISRDNAKNTVYLQMNSLKPEDTAVYYCAAVGDWYVSYYEMDYWGQGTQVTVSS"
Out: low polyreactivity

In: # get_value(readout='polyreactivity (PSR sort gate)', item= "QVQLVESGGGLVQAGGSLRLSCAASGNIFQRYAMGWYRQAPGKVRELVAAISGNGGNSFYADSVKGRFTISRDNAKYTVYLQMNSLKPEDTAVYYCNTVYVVYGFDYWGQGTQVTVSS" )
Out: high polyreactivity

In: Record request: polyreactivity (PSR sort gate) value, item "QVQLVESGGGLVQAGGSLRLSCAASGIIFNTYAMGWYRQAPGKERELVAAIDSRDASTYADSVKGRYTISRDNAKNTVYLQMNSLIPEDTAVYYCAATHNVDLISEVYYWGQGTQVTVSS"
Out: low polyreactivity
